target: Integrin alpha-V/beta-8 (Homo sapiens, UniProt P06756+P26012); assay: Inhibition of LAP binding to human integrin alphavbeta8 receptor after 1 hr by solid-phase binding assay; format: protein-complex assay; conditions: read-out: IC50
Sequence (P06756 31-889 limits assumed): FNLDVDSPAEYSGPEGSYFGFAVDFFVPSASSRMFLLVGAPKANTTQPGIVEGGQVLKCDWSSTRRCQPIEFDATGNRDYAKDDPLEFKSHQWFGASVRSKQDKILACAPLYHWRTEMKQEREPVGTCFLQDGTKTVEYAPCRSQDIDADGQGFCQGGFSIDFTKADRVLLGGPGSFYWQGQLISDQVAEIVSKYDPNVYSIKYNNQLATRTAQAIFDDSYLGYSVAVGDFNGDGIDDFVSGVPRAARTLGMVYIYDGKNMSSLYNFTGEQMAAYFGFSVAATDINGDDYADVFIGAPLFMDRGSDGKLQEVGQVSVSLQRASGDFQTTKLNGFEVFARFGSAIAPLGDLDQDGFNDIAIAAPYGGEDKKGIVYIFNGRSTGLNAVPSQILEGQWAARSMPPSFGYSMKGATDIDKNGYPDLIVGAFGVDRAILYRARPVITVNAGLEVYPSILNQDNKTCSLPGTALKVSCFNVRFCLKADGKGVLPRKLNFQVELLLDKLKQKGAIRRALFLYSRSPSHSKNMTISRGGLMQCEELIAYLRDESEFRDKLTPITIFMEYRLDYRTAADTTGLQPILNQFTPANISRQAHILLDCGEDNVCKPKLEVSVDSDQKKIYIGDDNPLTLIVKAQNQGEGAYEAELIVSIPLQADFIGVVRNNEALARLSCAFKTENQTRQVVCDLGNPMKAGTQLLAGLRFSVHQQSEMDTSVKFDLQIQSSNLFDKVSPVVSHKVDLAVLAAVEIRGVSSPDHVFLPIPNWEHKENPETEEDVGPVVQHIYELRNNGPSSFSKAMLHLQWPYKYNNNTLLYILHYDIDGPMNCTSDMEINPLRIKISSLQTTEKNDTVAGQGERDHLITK
Sequence (P06756 891-1048 limits assumed): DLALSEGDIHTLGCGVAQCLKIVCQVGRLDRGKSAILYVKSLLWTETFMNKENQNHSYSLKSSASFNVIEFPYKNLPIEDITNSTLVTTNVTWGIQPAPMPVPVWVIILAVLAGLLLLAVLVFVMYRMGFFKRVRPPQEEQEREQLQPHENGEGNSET
Sequence (P26012 43-769 limits assumed): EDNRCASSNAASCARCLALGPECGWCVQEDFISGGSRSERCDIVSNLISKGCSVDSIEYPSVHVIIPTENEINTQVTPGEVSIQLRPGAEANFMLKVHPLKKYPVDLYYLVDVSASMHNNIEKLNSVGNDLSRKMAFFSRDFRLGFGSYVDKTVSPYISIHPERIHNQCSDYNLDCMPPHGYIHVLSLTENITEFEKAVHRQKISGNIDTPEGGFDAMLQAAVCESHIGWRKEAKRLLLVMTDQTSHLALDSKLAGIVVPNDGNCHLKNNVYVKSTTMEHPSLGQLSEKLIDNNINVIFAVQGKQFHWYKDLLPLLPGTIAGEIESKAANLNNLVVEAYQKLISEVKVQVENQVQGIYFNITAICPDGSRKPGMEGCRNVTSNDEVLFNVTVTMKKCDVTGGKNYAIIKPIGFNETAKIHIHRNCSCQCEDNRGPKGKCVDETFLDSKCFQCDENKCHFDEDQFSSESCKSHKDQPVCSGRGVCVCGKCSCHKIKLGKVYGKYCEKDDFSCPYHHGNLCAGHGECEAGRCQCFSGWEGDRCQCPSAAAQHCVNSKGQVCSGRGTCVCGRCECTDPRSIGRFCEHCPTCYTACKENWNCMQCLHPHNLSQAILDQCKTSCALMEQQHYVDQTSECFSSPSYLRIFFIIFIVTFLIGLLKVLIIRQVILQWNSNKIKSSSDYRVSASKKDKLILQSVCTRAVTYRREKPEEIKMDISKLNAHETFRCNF
Non-standard residues stand in square brackets, D forms with d. Residues, ends and D or L forms follow the SMILES beside them. Groups on a side chain read outwards from the residue. *: point of attachment. BODIPY(FL) = CC1=CC(C)=[N+]2C1=Cc1ccc(CCC(=O)*)n1[B-]2(F)F; NMeK = CN[C@@H](CCCCN)C(=O)O; Ahx = NCCCCCC(=O)O
READOUT_NAME: IC50 (nM)
Write the number in nM without appending the unit.

Measured IC50, CCCCCCNC1C[C@H]2C(=O)NCC(=O)N[C@@H](CC(C)C)C(=O)N[C@@H](CCCNC(=N)N)C(=O)NCC(=O)N[C@@H](CC(=O)O)C(=O)N[C@@H](CC(C)C)C(=O)N3CCC[C@@H]3C(=O)N2C1 (stereo partly drawn) : 12.8

// sample CCNC(=N)NCCC[C@@H]1NC(=O)[C@H](CC(C)C)NC(=O)CNC(=O)[C@@H]2CCCN2C(=O)[C@H]2CCCN2C(=O)[C@H](CC(C)C)NC(=O)[C@H](CC(=O)O)NC(=O)CNC1=O , its IC50 was 38

Record summary for CC(C)C[C@@H]1NC(=O)[C@H](CC(=O)O)NC(=O)CNC(=O)[C@H](CCCNC(=N)N)NC(=O)CNC(=O)[C@H](C)NC(=O)[C@@H]2CCCN2C(=O)[C@H]2CCCN2C1=O : reported IC50 = 15.9

Entry under test: CC(C)C[C@@H]1NC(=O)[C@@H]2CCCN2C(=O)[C@H]2CCCN2C(=O)[C@H](CC(C)C)NC(=O)[C@H](CC(=O)O)NC(=O)CNC(=O)[C@H](CCCNC(=N)N)NC(=O)[C@H](C)NC(=O)[C@H](C)NC(=O)[C@H](C)NC1=O . Its IC50 was 631

Record CC(C)C[C@@H]1NC(=O)[C@H](CC(=O)O)NC(=O)CNC(=O)[C@H](CCCNC(=N)N)NC(=O)[C@H](Cc2ccccc2)NC(=O)[C@H](C)NC(=O)[C@@H]2CCCN2C(=O)[C@H]2CCCN2C1=O , field IC50: 1.83

The reported value for CC(C)C[C@@H]1NC(=O)[C@H](C)NC(=O)[C@@H]2CCCN2C(=O)[C@@H](CCCCN)N(C)C(=O)[C@H](CC(C)C)NC(=O)[C@H](CC(=O)O)NC(=O)CNC(=O)[C@H](CCCNC(=N)N)NC1=O in terms of IC50 is 12.1

The value of IC50 measured for the molecule CC(=O)NCCCCCCN1C(=O)[C@H]2CCCN2C(=O)[C@H](CC(C)C)NC(=O)[C@H](CC(=O)O)NC(=O)CNC(=O)[C@H](CCCNC(=N)N)NC(=O)[C@H](CC(C)C)NC(=O)CNC(=O)[C@@H]1C turned out to be 20

IC50 measured on CC(C)C[C@@H]1NC(=O)[C@H](C)NC(=O)[C@H](CC(C)C)N(C)C(=O)[C@H]2CCCN2C(=O)[C@H](CC(C)C)NC(=O)[C@H](CC(=O)O)NC(=O)CNC(=O)[C@H](CCCNC(=N)N)NC1=O = 34

Form field IC50, entry CC(C)C[C@@H]1NC(=O)[C@H](C)NC(=O)[C@H](C)NC(=O)[C@H](CC(C)C)NC(=O)[C@H](CC(=O)O)NC(=O)[C@H]([C@@H](C)O)NC(=O)[C@H](CCCNC(=N)N)NC(=O)[C@@H]2CCCN2C(=O)[C@H]2CCCN2C(=O)[C@H](C)NC1=O : 3080

Notebook: C[C@@H]1NC(=O)[C@@H]2CCCN2C(=O)[C@H]2CCCN2C(=O)[C@H](CCCCN)NC(=O)[C@H](CC(=O)O)NC(=O)CNC(=O)[C@H](CCCNC(=N)N)NC(=O)[C@H](Cc2ccccc2)NC1=O , IC50 read as 4340

Form field IC50, entry C[C@@H]1NC(=O)[C@@H]2CCCN2C(=O)[C@H]2CCCN2C(=O)[C@H](Cc2ccccc2)NC(=O)[C@H](CC(=O)O)NC(=O)CNC(=O)[C@H](CCCNC(=N)N)NC(=O)[C@H](Cc2ccccc2)NC1=O : 1150

Recorded IC50 (molecule CC(=O)NC1C[C@H]2C(=O)NCC(=O)N[C@@H](CC(C)C)C(=O)N[C@@H](CCCNC(=N)N)C(=O)NCC(=O)N[C@@H](CC(=O)O)C(=O)N[C@@H](CC(C)C)C(=O)N3CCC[C@@H]3C(=O)N2C1 (stereo partly drawn) ): 10.5

# molecule CC(C)C[C@@H]1NC(=O)[C@H](CC(=O)O)NC(=O)CNC(=O)[C@H](CCCNC(=N)N)NC(=O)[C@H](CCCCN)NC(=O)[C@H](C)NC(=O)[C@@H]2CCCN2C(=O)[C@H]2CCCN2C1=O ; its IC50 = 7.32

Lab note: CC(C)C[C@@H]1NC(=O)[C@H](CC(=O)O)NC(=O)[C@H]([C@@H](C)O)NC(=O)[C@H](CCCNC(=N)N)NC(=O)[C@H](C)NC(=O)[C@H](CC(C)C)NC(=O)[C@@H]2CCCN2C(=O)[C@H]2CCCN2C(=O)[C@H](C)NC(=O)[C@H](C)NC1=O gave IC50 of 153

The reported IC50 of the molecule CC1=CC(C)=[N+]2C1=Cc1ccc(CCC(=O)NCCCCCC(=O)NCCCC[C@H]3C(=O)NCC(=O)N[C@@H](CC(C)C)C(=O)N[C@@H](CCCNC(=N)N)C(=O)NCC(=O)N[C@@H](CC(=O)O)C(=O)N[C@@H](CC(C)C)C(=O)N4CCC[C@@H]4C(=O)N3C)n1[B-]2(F)F (cyclo(RGDL[dP][NMeK]([Ahx-BODIPY(FL)])GL)) was 0.06

// CC(C)[C@@H]1NC(=O)[C@H](CC(=O)O)NC(=O)CNC(=O)[C@H](CCCNC(=N)N)NC(=O)[C@H](Cc2ccccc2)NC(=O)[C@H](C)NC(=O)[C@@H]2CCCN2C(=O)[C@H]2CCCN2C1=O : IC50 value = 467

Reported IC50 for CCCC[C@@H]1NC(=O)[C@H](CC(=O)O)NC(=O)CNC(=O)[C@H](CCCNC(=N)N)NC(=O)[C@H](Cc2ccccc2)NC(=O)[C@H](C)NC(=O)[C@@H]2CCCN2C(=O)[C@H]2CCCN2C1=O was 38.1

Short answer for CC(C)C[C@@H]1NC(=O)[C@H](C)NC(=O)[C@@H]2CCCN2C(=O)[C@H]2CCCN2C(=O)[C@H](C)NC(=O)[C@H](CC(C)C)NC(=O)[C@H](CC(=O)O)NC(=O)[C@H]([C@@H](C)O)NC(=O)[C@H](CCCNC(=N)N)NC(=O)[C@H](C)NC1=O : IC50 was 8410
